System: MPNST multicellular tumor spheroids, viability % test/control
measurement-protocol: Anticancer human tumor MPNST cell line growth inhibition;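 note: luminescence signal used as surrogate for viable cell amount; spheroids exposed to agents for seven days after three days of growth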
condition: second compound 0.000949 µM; first compound 1 µM; hits give low values
Here, each record is paired with measured viability, T/C data.
reported-property: viability, T/C (%)

{"compound": "CC(C)n1c(=O)n(C)c2cnc3cc(F)c(-c4ccc(OCCCN5CCCCC5)nc4)cc3c21 + COc1cc2c(cc1O)CCNC21CSC2c3c(OC(C)=O)c(C)c4c(c3C(COC1=O)N1C(O)C3Cc5cc(C)c(OC)c(O)c5C(C21)N3C)OCO4", "reported-property": "viability, T/C", "number": 48.1}
{"compound": "[2H]c1nc(C)nc([2H])c1-c1cc(NC[C@@H](C)c2cccc3c(C(=O)NC)ccnc23)ncn1 + COc1cc2c(cc1O)CCNC21CSC2c3c(OC(C)=O)c(C)c4c(c3C(COC1=O)N1C(O)C3Cc5cc(C)c(OC)c(O)c5C(C21)N3C)OCO4", "reported-property": "viability, T/C", "number": 43.1}
{"compound": "Cc1cc(C)c(CNC(=O)c2cc(-c3ccc(CN4CCOCC4)cc3)cc3c2cnn3C2CCCC2)c(=O)[nH]1 + COc1cc2c(cc1O)CCNC21CSC2c3c(OC(C)=O)c(C)c4c(c3C(COC1=O)N1C(O)C3Cc5cc(C)c(OC)c(O)c5C(C21)N3C)OCO4", "reported-property": "viability, T/C", "number": 43.6}
{"compound": "COc1cc(C)[nH]c(=O)c1CN1CCc2c(Cl)cc(C(OC)C3COC3)c(Cl)c2C1=O (stereo unspecified) + COc1cc2c(cc1O)CCNC21CSC2c3c(OC(C)=O)c(C)c4c(c3C(COC1=O)N1C(O)C3Cc5cc(C)c(OC)c(O)c5C(C21)N3C)OCO4", "reported-property": "viability, T/C", "number": 42.8}
{"compound": "COc1ccc([C@@H](O)c2cc(-c3ncnc4cc(N5CCOCC5)ccc34)c(F)cc2Cl)nn1 + COc1cc2c(cc1O)CCNC21CSC2c3c(OC(C)=O)c(C)c4c(c3C(COC1=O)N1C(O)C3Cc5cc(C)c(OC)c(O)c5C(C21)N3C)OCO4", "reported-property": "viability, T/C", "number": 14.4}
{"compound": "CC1COCCN1c1cc(-c2ccnn2C)c2ccnc(-c3ccn[nH]3)c2n1 (stereo unspecified) + COc1cc2c(cc1O)CCNC21CSC2c3c(OC(C)=O)c(C)c4c(c3C(COC1=O)N1C(O)C3Cc5cc(C)c(OC)c(O)c5C(C21)N3C)OCO4", "reported-property": "viability, T/C", "number": 31.3}
